- System: UniProt Q15562
- Sequence (Q15562 whole entry, species assumed): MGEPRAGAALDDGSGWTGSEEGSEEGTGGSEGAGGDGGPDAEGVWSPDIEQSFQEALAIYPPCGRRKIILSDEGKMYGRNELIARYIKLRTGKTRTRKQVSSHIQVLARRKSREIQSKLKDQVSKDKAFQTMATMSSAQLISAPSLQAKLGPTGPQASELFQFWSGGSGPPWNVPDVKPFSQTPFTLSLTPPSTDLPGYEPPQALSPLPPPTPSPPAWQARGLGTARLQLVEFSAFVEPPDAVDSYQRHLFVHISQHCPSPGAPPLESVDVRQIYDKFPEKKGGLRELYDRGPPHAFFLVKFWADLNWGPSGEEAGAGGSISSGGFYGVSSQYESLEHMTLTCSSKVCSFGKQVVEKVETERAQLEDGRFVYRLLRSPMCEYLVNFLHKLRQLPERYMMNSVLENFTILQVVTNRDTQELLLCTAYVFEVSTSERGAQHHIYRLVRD
- Test: Thermal shift assay TEAD2
- Type: binding
- Protocol: Example B: Thermal Shift Assay 1) Prepare a fresh dilution of Protein Thermal Shift™ Dye (Applied Biosystems, 1000×) to 8× by […]. 2) To ensure the same DMSO concentration, the compounds were diluted as follows: Prepare 10 mM stock solution of compounds; The final DMSO concentration was 0.1% 10 μM: Diluting stock solution to 100 μM by using PBS. 1 μM: Diluting stock solution to 1 mM by using DMSO, then dilute to 10 μM by using PBS. […]
Can you tell me TEAD2 ΔTm for the items I'm about to list?
# value in °C; strip the unit string

Any idea what its TEAD2 ΔTm is? The compound is CNS(=O)(=O)CCc1cc(-c2ccc(C(F)(F)F)cc2)cc2c1cnn2C
4.1

Any idea what its TEAD2 ΔTm is? The compound is Cn1cc2nc(Oc3ccc(C(F)(F)F)cc3)cc([C@@H]3C[C@H]3C(=O)N3C[C@H]4C[C@@H]3CO4)c2n1 (single isomer, unassigned)
6.1

Any idea what its TEAD2 ΔTm is? The compound is CNS(=O)(=O)[C@@H]1CC1c1cc(Oc2ccc(C(F)(F)F)cc2)cc2cn(C)nc12 (mixture of isomers)
9.7

Any idea what its TEAD2 ΔTm is? The compound is Cn1cc2cc(Oc3ccc(C(F)(F)F)cc3)cc(C3C[C@H]3C(=O)O)c2n1 (mixture of isomers)
12.7

Any idea what its TEAD2 ΔTm is? The compound is Cn1cc2cc(Oc3ccc(C(F)(F)F)cc3)cc([C@@H]3C[C@H]3C(=O)N3CCO[C@H](CO)C3)c2n1 (single isomer, unassigned)
12.2

Any idea what its TEAD2 ΔTm is? The compound is Cn1cc2cc(Oc3ccc(C(F)(F)F)cc3)cc([C@@H]3C[C@H]3C(=O)N3CC4CC3CC4O)c2n1 (single isomer, unassigned) [Example 103a]
9.9

Any idea what its TEAD2 ΔTm is? The compound is CO[C@H]1CN(C(=O)[C@@H]2C[C@H]2c2cc(Oc3ccc(C(F)(F)F)cc3)cc3cn(C)nc23)C[C@@H]1O (single isomer, unassigned) [Example 112a]
9.5

Any idea what its TEAD2 ΔTm is? The compound is CNC(=O)[C@@H]1C[C@H]1c1cc(-c2ccc(C(F)(F)F)cc2)cc2c1cnn2C(F)F (racemic)
0.9

Any idea what its TEAD2 ΔTm is? The compound is Cn1cc2cc(Oc3ccc(C(F)(F)F)cc3)cc([C@@H]3C[C@H]3C(=O)N3CC4CC(C3)N4)c2n1 (single isomer, unassigned)
9.1

Any idea what its TEAD2 ΔTm is? The compound is Cn1cc2cc(Oc3ccc(C(F)(F)F)cc3)cc([C@H]3C[C@@H]3C(=O)N3CC(O)C3)c2n1 (single isomer, unassigned) [Example 58b]
12.9

Any idea what its TEAD2 ΔTm is? The compound is CC(=O)NS(=O)(=O)CCc1cc(-c2ccc(C(F)(F)F)cc2)cc2cn(C)nc12
10.9

Any idea what its TEAD2 ΔTm is? The compound is CNC(=O)[C@@H]1CC1c1cc(Oc2ccc(C(F)(F)F)cc2)cc2c1cnn2C (mixture of isomers)
12.9

Any idea what its TEAD2 ΔTm is? The compound is Cn1cc2cc(Oc3ccc(C(F)(F)F)c(F)c3)cc([C@@H]3C[C@H]3C(=O)N3CC(O)C3)c2n1 (single isomer, unassigned)
15.8

Any idea what its TEAD2 ΔTm is? The compound is CNC(=O)[C@@H]1CC1c1cc(OCc2ccc(C(F)(F)F)cc2)cc2c1cnn2C (mixture of isomers)
0.9

Any idea what its TEAD2 ΔTm is? The compound is CNS(=O)(=O)[C@@H]1CC1c1cc(Oc2ccc(C(F)(F)F)cc2)cc2cccnc12 (mixture of isomers)
9.6

Any idea what its TEAD2 ΔTm is? The compound is [2H]C([2H])([2H])n1cc2cc(Oc3ccc(C(F)(F)F)cc3)cc([C@H]3C[C@@H]3C(=O)NC)c2n1 (single isomer, unassigned) [Example 76b]
15.4

Any idea what its TEAD2 ΔTm is? The compound is Cn1cc2cc(Oc3ccc(C(F)(F)F)cc3)cc([C@H]3C[C@@H]3C(=O)N3CC4CC3CC4O)c2n1 (single isomer, unassigned) [Example 103b]
12.0

Any idea what its TEAD2 ΔTm is? The compound is Cn1cc2cc(-c3ccc(OC(F)(F)F)cc3)cc(C3C[C@H]3C(=O)O)c2n1 (mixture of isomers)
9.4

Any idea what its TEAD2 ΔTm is? The compound is CN1CCC2(CN(C(=O)[C@@H]3CC3c3cc(Oc4ccc(C(F)(F)F)cc4)cc4cn(C)nc34)C2)C1=O (single isomer, unassigned)
3.5

Any idea what its TEAD2 ΔTm is? The compound is O=C(O)[C@@H]1CC1c1cc(Oc2ccc(C(F)(F)F)cc2)cn2ccnc12 (mixture of isomers)
8.0

Any idea what its TEAD2 ΔTm is? The compound is Cn1cc2cc(O[C@H]3CC[C@@H](C(F)(F)F)CC3)cc([C@H]3C[C@@H]3C(=O)N3CC(O)C3)c2n1 (single isomer, unassigned) [Example 87b]
2.6

Any idea what its TEAD2 ΔTm is? The compound is Cn1cc2cc(Oc3ccc(C(F)(F)F)cc3)cc(C3C[C@H]3C(=O)N3C4COCC3C4)c2n1 (single isomer, unassigned)
13.1

Any idea what its TEAD2 ΔTm is? The compound is Cn1cc2cc(Oc3ccc(C(F)(F)F)cc3)cc([C@H]3C[C@@H]3C(=O)O)c2n1 (single isomer, unassigned) [Example 16b]
14.9

Any idea what its TEAD2 ΔTm is? The compound is Cn1cc2cc(Oc3ccc(C(F)(F)F)cc3)cc([C@@H]3C[C@H]3C(=O)N3CCO[C@@H](CO)C3)c2n1 (single isomer, unassigned)
10.6

Any idea what its TEAD2 ΔTm is? The compound is Cn1cc2cc(Oc3ccc(C(F)F)cc3)cc([C@H]3C[C@@H]3C(=O)N3CC(O)C3)c2n1 (single isomer, unassigned) [Example 89b]
12.4

* * *

- System: TEAD4 (Homo sapiens)
- Sequence (Q15561 whole entry, species assumed): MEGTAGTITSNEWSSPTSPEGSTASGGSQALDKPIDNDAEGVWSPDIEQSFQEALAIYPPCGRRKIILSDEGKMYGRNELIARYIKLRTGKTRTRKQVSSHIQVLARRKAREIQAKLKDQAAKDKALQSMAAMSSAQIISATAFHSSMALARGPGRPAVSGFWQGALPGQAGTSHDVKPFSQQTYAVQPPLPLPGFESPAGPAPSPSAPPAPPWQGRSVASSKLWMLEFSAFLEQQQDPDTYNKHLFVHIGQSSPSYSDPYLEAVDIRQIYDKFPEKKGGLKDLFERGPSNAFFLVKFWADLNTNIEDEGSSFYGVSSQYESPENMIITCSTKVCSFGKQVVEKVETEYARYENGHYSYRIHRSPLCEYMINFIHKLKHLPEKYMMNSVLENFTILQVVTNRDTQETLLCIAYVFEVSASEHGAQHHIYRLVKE
- Test: Thermal shift assay TEAD4
- Type: binding
Property: TEAD4 ΔTm (°C)
# value in °C; strip the unit string

Any idea what its TEAD4 ΔTm is? The compound is CNS(=O)(=O)[C@@H]1CC1c1cc(Oc2ccc(C(F)(F)F)cc2)cc2cccnc12 (mixture of isomers)
8.2

Any idea what its TEAD4 ΔTm is? The compound is Cn1cc2cc(Oc3ccc(C(F)(F)F)cc3)cc(C3C[C@H]3C(=O)N3C[C@@H]4C[C@H]3C[C@H]4O)c2n1 (single isomer, unassigned) [Example 103d]
11.2

Any idea what its TEAD4 ΔTm is? The compound is C[C@@H](CO)NC(=O)[C@@H]1CC1c1cc(Oc2ccc(C(F)(F)F)cc2)cc2cn(C)nc12 (single isomer, unassigned)
9.5

Any idea what its TEAD4 ΔTm is? The compound is Cn1cc2cc(Oc3ccc(C(F)(F)F)cc3)cc(C3C[C@H]3C(=O)NC[C@H]3C[C@@H](O)[C@@H](O)C3O)c2n1 (single isomer, unassigned)
6.1

* * *

- System: TEAD3 (Homo sapiens)
- Sequence (Q99594 whole entry, species assumed): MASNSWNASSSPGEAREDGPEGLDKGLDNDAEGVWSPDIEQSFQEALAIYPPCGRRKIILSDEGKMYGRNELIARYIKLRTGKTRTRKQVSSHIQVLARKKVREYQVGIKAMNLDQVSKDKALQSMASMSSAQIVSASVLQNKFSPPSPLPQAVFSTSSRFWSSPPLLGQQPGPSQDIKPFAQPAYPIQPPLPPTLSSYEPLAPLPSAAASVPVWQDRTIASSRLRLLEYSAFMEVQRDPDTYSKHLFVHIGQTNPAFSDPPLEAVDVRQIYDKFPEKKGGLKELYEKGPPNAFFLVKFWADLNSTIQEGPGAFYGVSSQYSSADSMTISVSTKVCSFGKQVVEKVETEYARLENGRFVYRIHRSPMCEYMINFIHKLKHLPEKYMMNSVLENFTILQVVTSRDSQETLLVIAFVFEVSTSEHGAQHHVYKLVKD
- Test: Thermal shift assay TEAD3
- Type: binding
Property: TEAD3 ΔTm (°C)
# value in °C; strip the unit string

Any idea what its TEAD3 ΔTm is? The compound is O=C(O)[C@@H]1CC1c1cn(-c2ccc(C(F)(F)F)cc2)c2cccnc12 (mixture of isomers) [Example 20]
3.2

Any idea what its TEAD3 ΔTm is? The compound is Cn1cc2cc(Oc3ccc(C(F)(F)F)cc3)cc([C@H]3C[C@@H]3C(=O)N3CC4CC3CC4O)c2n1 (single isomer, unassigned) [Example 103b]
10.4

Any idea what its TEAD3 ΔTm is? The compound is Cn1cc2cc(Oc3ccc(C(F)(F)F)cc3)cc(C3C[C@H]3C(=O)N3C4COCC3CC(O)C4)c2n1 (single isomer, unassigned) [Example 116b]
2.2

Any idea what its TEAD3 ΔTm is? The compound is Cn1cc2cc(Oc3ccc(C(F)(F)F)cc3)cc([C@@H]3C[C@H]3C(=O)NC#N)c2n1 (single isomer, unassigned) [Example 71]
12.2

Any idea what its TEAD3 ΔTm is? The compound is CNS(=O)(=O)CCc1cc(-c2ccc(C(F)(F)F)cc2)cc2cn(C)nc12 [Example 44]
3.0

Any idea what its TEAD3 ΔTm is? The compound is O=C(O)[C@@H]1CC1c1cc(Oc2ccc(C(F)(F)F)cc2)cn2ccnc12 (mixture of isomers) [Example 83]
1.4

Any idea what its TEAD3 ΔTm is? The compound is CNS(=O)(=O)[C@@H]1CC1c1cc(-c2ccc(C(F)(F)F)cc2)cc2cn(C)nc12 (mixture of isomers) [Example 50]
0.7
